The following molecules each carry a recorded IC50 for MERTK (Homo sapiens).

# smiles.entry, IC50
measured = [
    ("COC[C@H](C)Nc1ncc2c(OC3CCOCC3)ncc(-c3ccc(CC#N)cc3)c2n1", "≤ 100 nM"),
    ("COC[C@H](C)Nc1ncc2c(OC3CCOCC3)ncc(-c3cccc(C(N)=O)c3)c2n1", "100 to 1000 nM"),
    ("C[C@@H](CC(F)(F)F)Nc1ncc2c(OC3CC(C)(C)N(C)C(C)(C)C3)ncc([C@H]3CC[C@H](O)CC3)c2n1", "≤ 100 nM"),
    ("COCCN1[C@@H]2CC[C@H]1C[C@H](Oc1ncc([C@H]3CC[C@H](O)CC3)c3nc(N[C@@H](C)CC(F)(F)F)ncc13)C2", "≤ 100 nM"),
]

###

biological target: MERTK (Homo sapiens, UniProt Q12866); assay: TR-FRET kinase activity assay, MERTK; type: biochemical; conditions: ratio calculated as FLT3 IC50/Mer IC50
Sequence (Q12866 21-999): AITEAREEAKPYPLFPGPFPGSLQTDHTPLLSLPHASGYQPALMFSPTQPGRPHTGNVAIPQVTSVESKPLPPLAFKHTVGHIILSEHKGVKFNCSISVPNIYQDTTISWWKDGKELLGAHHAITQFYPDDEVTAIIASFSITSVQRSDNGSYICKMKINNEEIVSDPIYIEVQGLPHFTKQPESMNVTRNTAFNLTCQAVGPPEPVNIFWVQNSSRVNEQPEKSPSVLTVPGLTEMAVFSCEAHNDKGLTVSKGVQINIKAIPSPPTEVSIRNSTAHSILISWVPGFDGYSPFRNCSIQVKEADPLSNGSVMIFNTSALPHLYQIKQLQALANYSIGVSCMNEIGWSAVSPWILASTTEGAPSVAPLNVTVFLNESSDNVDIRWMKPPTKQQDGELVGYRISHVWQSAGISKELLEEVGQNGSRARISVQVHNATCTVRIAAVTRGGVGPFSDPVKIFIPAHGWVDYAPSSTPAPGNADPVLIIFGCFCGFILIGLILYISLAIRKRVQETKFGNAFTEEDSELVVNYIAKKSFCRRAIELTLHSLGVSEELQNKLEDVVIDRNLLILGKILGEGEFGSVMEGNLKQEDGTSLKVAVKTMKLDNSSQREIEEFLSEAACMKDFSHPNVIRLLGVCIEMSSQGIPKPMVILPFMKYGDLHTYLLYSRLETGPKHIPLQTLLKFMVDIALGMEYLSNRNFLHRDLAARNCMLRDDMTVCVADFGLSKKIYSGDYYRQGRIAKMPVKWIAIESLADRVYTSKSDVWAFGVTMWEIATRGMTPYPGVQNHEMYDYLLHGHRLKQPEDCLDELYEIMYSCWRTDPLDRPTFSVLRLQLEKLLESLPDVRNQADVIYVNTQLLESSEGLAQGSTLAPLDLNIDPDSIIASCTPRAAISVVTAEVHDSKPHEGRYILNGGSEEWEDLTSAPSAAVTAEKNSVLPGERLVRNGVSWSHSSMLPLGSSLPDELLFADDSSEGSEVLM
readout.name: Mer/Flt3 ratio (FLT3 IC50/Mer IC50)

# molecule, readout.name, value.observed
rows = [
    ("CCCC(C)Nc1ncc2c(O[C@H]3CC[C@@H](O)CC3)ncc([C@H]3CC[C@H](O)CC3)c2n1 (stereo partly shown)", "Mer/Flt3 ratio (FLT3 IC50/Mer IC50)", "+++ (a ratio of >100)"),
    ("COCCN1C(C)(C)CC(Oc2ncc([C@H]3CC[C@H](O)CC3)c3nc(N[C@@H](C)CC#N)ncc23)CC1(C)C", "Mer/Flt3 ratio (FLT3 IC50/Mer IC50)", "+++ (a ratio of >100)"),
    ("CC[C@H](C)Nc1ncc2c(OC3CCN(S(C)(=O)=O)CC3)ncc([C@H]3CC[C@H](O)CC3)c2n1", "Mer/Flt3 ratio (FLT3 IC50/Mer IC50)", "+++ (a ratio of >100)"),
]

###

target: FLT3 (Homo sapiens, UniProt P36888)
Sequence (P36888 27-993): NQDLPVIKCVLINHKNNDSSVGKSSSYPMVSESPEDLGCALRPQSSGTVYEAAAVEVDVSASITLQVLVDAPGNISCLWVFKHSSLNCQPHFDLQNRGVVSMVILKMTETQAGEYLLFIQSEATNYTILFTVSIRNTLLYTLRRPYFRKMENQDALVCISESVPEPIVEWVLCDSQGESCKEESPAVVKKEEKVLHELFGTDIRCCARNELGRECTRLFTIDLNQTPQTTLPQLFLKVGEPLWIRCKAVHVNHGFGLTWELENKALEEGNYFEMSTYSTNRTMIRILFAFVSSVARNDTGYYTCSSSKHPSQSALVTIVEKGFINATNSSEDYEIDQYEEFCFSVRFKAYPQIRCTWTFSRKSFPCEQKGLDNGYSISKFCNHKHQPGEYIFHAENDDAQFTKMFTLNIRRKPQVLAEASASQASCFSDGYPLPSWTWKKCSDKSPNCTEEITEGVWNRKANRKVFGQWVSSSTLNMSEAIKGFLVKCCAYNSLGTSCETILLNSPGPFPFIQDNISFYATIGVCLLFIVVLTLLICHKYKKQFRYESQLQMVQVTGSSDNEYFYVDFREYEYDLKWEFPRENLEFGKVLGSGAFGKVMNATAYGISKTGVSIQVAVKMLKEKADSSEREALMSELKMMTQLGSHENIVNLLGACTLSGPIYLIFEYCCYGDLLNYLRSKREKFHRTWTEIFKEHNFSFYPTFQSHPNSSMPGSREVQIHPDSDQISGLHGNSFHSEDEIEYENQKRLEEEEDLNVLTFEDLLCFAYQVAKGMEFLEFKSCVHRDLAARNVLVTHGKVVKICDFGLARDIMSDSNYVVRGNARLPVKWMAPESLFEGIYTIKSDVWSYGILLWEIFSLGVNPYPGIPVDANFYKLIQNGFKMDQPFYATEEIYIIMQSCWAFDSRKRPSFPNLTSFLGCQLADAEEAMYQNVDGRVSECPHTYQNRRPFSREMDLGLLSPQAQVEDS
pIC50: −log10 of the molar value.
Measured pIC50 by item

# molecule, target.or.test.system, pIC50
measured = [
    ("CC[C@H](C)Nc1ncc2c(O[C@H]3CC[C@H](N(C)C)C3)ncc([C@H]3CC[C@H](O)CC3)c2n1 [Compound 267]", "FLT3 (Homo sapiens, UniProt P36888)", "6.00 to 7.00"),
    ("CCCCC[C@H](C)Nc1ncc2c(OC3CCOCC3)ncc([C@H]3CC[C@H](O)CC3)c2n1 [Compound 113]", "FLT3 (Homo sapiens, UniProt P36888)", "5.00 to 6.00"),
    ("CCOc1ncc([C@H]2CC[C@H](O)CC2)c2nc(N[C@@H](C)CC)ncc12 [Compound 235]", "FLT3 (Homo sapiens, UniProt P36888)", "6.00 to 7.00"),
    ("CCCC(C)Nc1ncc2c(OC[C@H]3CC[C@@H](O)CC3)ncc([C@H]3CC[C@H](O)CC3)c2n1 (stereo partly shown) [Compound 157]", "FLT3 (Homo sapiens, UniProt P36888)", "5.00 to 6.00"),
    ("CCCCNc1cc2c(cn1)c(=O)n(C1CCN(C)CC1)cc2[C@H]1CC[C@H](O)CC1 [Compound 116]", "FLT3 (Homo sapiens, UniProt P36888)", "6.00 to 7.00"),
    ("CCCCNc1ncc2c(=O)n(-c3ccc(CN4CCOCC4)cc3)cc([C@H]3CC[C@H](O)CC3)c2n1 [Compound 101]", "FLT3 (Homo sapiens, UniProt P36888)", "6.00 to 7.00"),
    ("CCC(CC)Nc1ncc2c(OC3CCNCC3)ncc([C@H]3CC[C@H](O)CC3)c2n1 [Compound 228]", "FLT3 (Homo sapiens, UniProt P36888)", "5.00 to 6.00"),
]

###

The following compounds each carry a recorded pIC50 for AXL (Homo sapiens, UniProt P30530).
pIC50: −log10 of the molar value.
readout.name: pIC50

# compound, readout.name, value.observed
measured = [
    ("O[C@H]1CC[C@H](c2cnc(OC3CCOCC3)c3cnc(Nc4ccc(-c5nn[nH]n5)cc4)nc32)CC1 [Compound 392]", "pIC50", "≥ 7.00"),
    ("C[C@@H](CC(F)(F)F)Nc1ncc2c(O[C@H]3C[C@@H](O)C3)ncc([C@H]3CC[C@](C)(O)CC3)c2n1 [Compound 423]", "pIC50", "≥ 7.00"),
    ("CC[C@H](C)Nc1ncc2c(NC3CCN(C)CC3)ncc([C@H]3CC[C@H](O)CC3)c2n1 [Compound 220]", "pIC50", "≥ 7.00"),
    ("C[C@@H](CC(F)(F)F)Nc1ncc2c(O[C@H]3C[C@@](C)(O)C3)ncc([C@H]3CC[C@H](O)CC3)c2n1 [Compound 429]", "pIC50", "≥ 7.00"),
    ("CCCC(C)Nc1ncc2c(=O)n([C@@H]3CCCN(C)C3)cc([C@H]3CC[C@H](O)CC3)c2n1 (stereo partly drawn) [Compound 200]", "pIC50", "5.00 to 6.00"),
    ("NC(=O)c1ccc(Nc2ncc3c(OC4CCOCC4)ncc([C@H]4CC[C@H](O)CC4)c3n2)cc1 [Compound 399]", "pIC50", "≥ 7.00"),
    ("O[C@H]1CC[C@H](c2cnc(OC3CCNCC3)c3cnc(Nc4ccc(F)cc4)nc32)CC1 [Compound 269]", "pIC50", "≥ 7.00"),
    ("CC[C@H](C)Nc1ncc2c(=O)n(CC34CCC(O)(CC3)CC4)cc([C@H]3CC[C@H](O)CC3)c2n1 [Compound 257]", "pIC50", "≥ 7.00"),
    ("COCCN1C(C)(C)CC(Oc2ncc([C@H]3CC[C@H](O)CC3)c3nc(N[C@@H](C)CF)ncc23)CC1(C)C [Compound 381]", "pIC50", "≥ 7.00"),
    ("O[C@H]1CC[C@H](c2cnc(OC3CCNCC3)c3cnc(N[C@H]4CCOC4)nc32)CC1 [Compound 136]", "pIC50", "6.00 to 7.00"),
    ("CC[C@H](C)Nc1ncc2c(OC3CCN(S(C)(=O)=O)CC3)ncc([C@H]3CC[C@H](O)CC3)c2n1 [Compound 233]", "pIC50", "≥ 7.00"),
    ("CCc1ncc([C@H]2CC[C@H](O)CC2)c2nc(N[C@@H](C)CC)ncc12 [Compound 244]", "pIC50", "6.00 to 7.00"),
    ("CCCCNc1ncc2c(=O)n(C3CCOCC3)cc([C@H]3CC[C@H](O)CC3)c2n1 [Compound 106]", "pIC50", "6.00 to 7.00"),
    ("CCOc1ncc(CC2CCNCC2)c2nc(N[C@@H](C)CC)ncc12 [Compound 236]", "pIC50", "6.00 to 7.00"),
    ("CCCC(C)Nc1ncc2c(=O)n([C@H]3CCN(C)C[C@@H]3F)cc([C@H]3CC[C@H](O)CC3)c2n1 (stereo partly drawn) [Compound 199]", "pIC50", "5.00 to 6.00"),
]

###

Target: TYRO3 (Homo sapiens)
Sequence (Q06418 41-890): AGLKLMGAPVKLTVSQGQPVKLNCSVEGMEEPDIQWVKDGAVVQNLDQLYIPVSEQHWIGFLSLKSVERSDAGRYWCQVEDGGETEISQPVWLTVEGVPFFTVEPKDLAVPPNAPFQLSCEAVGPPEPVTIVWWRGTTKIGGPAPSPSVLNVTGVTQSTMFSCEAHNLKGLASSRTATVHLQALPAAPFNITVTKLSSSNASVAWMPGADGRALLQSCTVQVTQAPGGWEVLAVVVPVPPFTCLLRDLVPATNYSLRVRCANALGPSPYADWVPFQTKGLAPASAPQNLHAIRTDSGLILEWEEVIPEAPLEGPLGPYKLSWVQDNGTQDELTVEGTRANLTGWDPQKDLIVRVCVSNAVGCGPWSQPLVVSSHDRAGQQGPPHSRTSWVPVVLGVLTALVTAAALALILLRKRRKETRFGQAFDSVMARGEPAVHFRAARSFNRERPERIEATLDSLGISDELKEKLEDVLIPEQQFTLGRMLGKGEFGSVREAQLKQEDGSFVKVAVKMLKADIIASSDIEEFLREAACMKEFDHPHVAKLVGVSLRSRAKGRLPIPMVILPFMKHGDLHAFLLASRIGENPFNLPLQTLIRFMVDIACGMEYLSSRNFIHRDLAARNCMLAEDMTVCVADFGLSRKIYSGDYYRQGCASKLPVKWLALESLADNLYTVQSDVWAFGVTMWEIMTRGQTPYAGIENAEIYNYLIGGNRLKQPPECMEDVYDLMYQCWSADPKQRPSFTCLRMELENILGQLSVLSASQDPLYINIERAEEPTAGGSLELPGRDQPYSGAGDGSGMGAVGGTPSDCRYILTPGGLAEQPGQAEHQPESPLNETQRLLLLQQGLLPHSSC
Assay: TR-FRET kinase activity assay, TYRO3
Format: biochemical
Details: ATP at Km, 60 minutes

# compound, IC50
measured = [
    ("COC[C@H](C)Nc1ncc2c(OC3CCOCC3)ncc(-c3cnn([C@H]4CCN(C)C4)c3)c2n1", "100 to 1000 nM"),
    ("O[C@H]1CC[C@H](c2cnc(OC3CCNCC3)c3cnc(Nc4ccc(Cl)cc4)nc32)CC1", "≤ 100 nM"),
    ("CCCC(C)Nc1ncc2c(O[C@H]3CC[C@H](O)CC3)ncc([C@H]3CC[C@H](O)CC3)c2n1 (stereo partly shown)", "≤ 100 nM"),
    ("CCCC(C)Nc1ncc2c(=O)n(CCN3CCOCC3)cc([C@H]3CC[C@H](O)CC3)c2n1 (stereo partly shown)", "≤ 100 nM"),
]
